Parameter: Fold Enrichment relative to AAV9, Brain (NHP). Scope: all listed entries.
Test system: brains, heart, liver, muscle, and DRG of the NHPs
Protocol Notes: Maturation of TTM-001 and TTM-002 capsids, NGS enrichment in NHP tissues
Format: in vivo
Applied Conditions: NGS fold-enrichment of matured AAV capsid variants; NHP brain, RNA; relative to AAV9 control
Excerpt: This Example describes maturation of the AAV9 capsid variants, TTM-001 (SEQ ID NO: 981 (amino acid) and 983 (DNA), comprising SEQ ID NO: 941 (encoded by SEQ ID NO: 942)) and TTM-002 (SEQ ID NO: 982 (amino acid) and 984 (DNA), comprising SEQ ID NO: […] (encoded by SEQ ID NO: 944)) in NHPs to further enhance their transduction and biodistribution in the central nervous system as well as other tissues, and evolve the AAV capsid variants to provide further cross-species compatibility. […]
Parameter Measured: Fold Enrichment relative to AAV9, Brain (NHP)

Residue Codes | Measured Target | Value Reported
KTIIGSGSPHSKAQDRQT | brains, heart, liver, muscle, and DRG of the NHPs | 58.258 fold
KTEQVSGSPHSKAQNQQT | brains, heart, liver, muscle, and DRG of the NHPs | 58.247 fold
KTINGSGSPHSKAQGAIT | brains, heart, liver, muscle, and DRG of the NHPs | 57.627 fold
KTINGSGSPHSKNQWQQT | brains, heart, liver, muscle, and DRG of the NHPs | 50.800 fold
KTINGSGSPHSKLKSQQT | brains, heart, liver, muscle, and DRG of the NHPs | 50.368 fold
KSINGSGSPHSKTQSQQT | brains, heart, liver, muscle, and DRG of the NHPs | 58.608 fold

---

System: brains, heart, liver, muscle, and DRG of the NHPs
Protocol Notes: Maturation of TTM-001 and TTM-002 capsids, NGS enrichment in NHP tissues
Type: in vivo
Applied Conditions: NGS fold-enrichment, RNA, brain of NHPs, relative to AAV9 control
Parameter: Fold Enrichment relative to AAV9, Brain (NHP). Scope: all listed entries.
Parameter Measured: Fold Enrichment relative to AAV9, Brain (NHP) (fold)

Residue Codes | Units Of Measure | Value Reported
KTELTSGSPHSKAQNQQT | fold | 74.548
KTINGSGSPHSKALHQHT | fold | 77.502
KTDRGSGSPHSKAQNQQT | fold | 61.419
KAEMGSGSPHSKAQNQQT | fold | 83.049
KTINGSGSPHSKAHNQQR | fold | 74.272
KTINGSGSPHSKGQNPPT | fold | 72.339
KTINGSGSPHSKAQSPPT | fold | 71.632
KTINGSGSPHSKRPEQQT | fold | 80.418
KTFNGSGSPHNKAQNHQT | fold | 64.060
KTANGSGSPHSKAQYQQT | fold | 73.038
KTINGTGSPHSKAQNHQI | fold | 77.089
KTVNGGGSPHSKAQSQQT | fold | 67.634

---

Test system: brain
Protocol Notes: NGS fold enrichment of synthetic library (passage 3) in C57Bl/6 mice, first cross-species screen
Format: in vivo
Applied Conditions: synthetic library passage 3, intravenous, RNA NGS, brain of C57Bl/6 mice, relative to wild-type AAV9
Parameter: Fold enrichment over AAV9 in the brain of Mice (C57Bl/6). Scope: all listed entries.
Parameter Measured: Fold enrichment over AAV9 in the brain of Mice (C57Bl/6) (fold)

Residue Codes | Units Of Measure | Value Reported
GSGQNQQLKSSAQT | fold | 0.908
GSGQNQQSNWITKT | fold | 0.540
GSRQSKRNELNQQT | fold | 1.325
GSGQSHRSELNQQT | fold | 0.668
GSGQPVLSISNQQT | fold | 0.390
GSGFNQRSEQNQQT | fold | 1.770
GNGFSSASGQNQQT | fold | 0.240
GSGQNQQTSLQDQT | fold | 0.315
GGGDLGRSSQNQQT | fold | 0.916
GSGDTLHMLQNQQT | fold | 0.393
GSGKGHSAGQNQQT | fold | 1.035
GSLIGMQSGQNQQT | fold | 0.797
GSNLSFQSGQNQQT | fold | 1.087
GSGPSISHGQNQQT | fold | 0.614
GLAGHTVSGQNQQT | fold | 0.972
GSGQEHRSLANQQT | fold | 0.507
GRGVQQKLQQNQQT | fold | 1.974
GSGQNQQTSGTTNC | fold | 1.040
GSGQNQQTLSKPWT | fold | 0.845
GSGQTQVLKSNQQT | fold | 1.599
GSSPAPNSGQNQQT | fold | 0.719
GSGQNQQTVGNPAT | fold | 0.856
GSRLVHVHGQNQQT | fold | 1.277
GSGQNQQTKVGHSA | fold | 0.669
GSGQNQQTVSRQST | fold | 1.330
GSSVGSPIGQNQQT | fold | 1.059
GSGQNQQPSSRVTT | fold | 0.784
GSGMLTHTLQNQQT | fold | 0.496
GSGLLYHDQQNQQT | fold | 0.405
GSGLGRAPVQNQQT | fold | 0.841
GVHDMRVSGQNQQT | fold | 1.171
GHMKGVTSGQNQQT | fold | 0.807
GSGQSSGRLINKQT | fold | 0.543
GSVHLSVTGQNQQT | fold | 0.741
GSGQPRSTGINQQT | fold | 0.650
GSGQNVSSVHRQQT | fold | 0.383
GSGDRYQTLQNQQT | fold | 0.645
GRGGIPQSGQNQQT | fold | 1.639
GSGQNQQTLYSSNT | fold | 0.664

---

System: brain
Protocol Notes: NGS fold enrichment of synthetic library (passage 3) in BALB/c mice, first cross-species screen
Type: in vivo
Applied Conditions: synthetic library passage 3, intravenous, RNA NGS, brain of BALB/c mice, relative to wild-type AAV9
Parameter Measured: Fold enrichment over AAV9 in the brain of Mice (BALB/c) (fold)

Residue Codes | Value Reported
GSGQNQQRNSDSVT | 0.842
GSGLLPLSSQNQQT | 0.293
GSGHLFQSGQNQQT | 0.386
GSGQNERHLVLQQT | 0.150
GSGLPDRNLQNQQT | 0.611
GSNMGVPLGQNQQT | 0.420
GSGQNQSQNHLQQT | 0.772
GSRLVHVHGQNQQT | 0.934
GSRSTGPSGQNQQT | 0.466
GSAAMSVRGQNQQT | 0.287
GSGQSSGRLINKQT | 0.277
GSGYKDTYGQNQQT | 0.448
GRAVMDHSGQNQQT | 0.283
GSGLAHLGGQNQQT | 0.794
GSLLTTASGQNQQT | 0.635
GRMFSLGSGQNQQT | 1.174
GSTGSHSAGQNQHT | 0.850
GKSFVPQSGQNQQT | 0.430

---

System: brains, heart, liver, muscle, and DRG of the NHPs
Protocol Notes: Maturation of TTM-001 and TTM-002 capsids, NGS enrichment in NHP tissues
Format: in vivo
Applied Conditions: NHP DRG; NGS; relative to AAV9 control
Parameter Measured: Fold Enrichment relative to AAV9, DRG (NHP)

Residue Codes | Value Reported
KTINGSGSPHSFQINQQT | 0.000 fold
KTINGSGSPHSKAQCLKT | 0.000 fold
KTINGSGSPHSRFWNQQT | 0.000 fold
KTINGRPSPHGKAQNQQT | 0.000 fold
KTINGSGSPHSKAQNFKR | 0.000 fold
KTINGSGSPHSWLKNQQT | 0.000 fold
KTINGSGSPHSLYWNQQT | 0.000 fold
KTINGSGSPHSKWGLQQT | 0.000 fold

---

Parameter: Fold Enrichment relative to AAV9, Heart (NHP). Scope: all listed entries.
Tested on: brains, heart, liver, muscle, and DRG of the NHPs
Protocol Notes: Maturation of TTM-001 and TTM-002 capsids, NGS enrichment in NHP tissues
Assay type: in vivo
Applied Conditions: NHP heart; relative to AAV9 control
Description: This Example describes maturation of the AAV9 capsid variants, TTM-001 (SEQ ID NO: 981 (amino acid) and 983 (DNA), comprising SEQ ID NO: 941 (encoded by SEQ ID NO: 942)) and TTM-002 (SEQ ID NO: 982 (amino acid) and 984 (DNA), comprising SEQ ID NO: […] (encoded by SEQ ID NO: 944)) in NHPs to further enhance their transduction and biodistribution in the central nervous system as well as other tissues, and evolve the AAV capsid variants to provide further cross-species compatibility. […]
Parameter Measured: Fold Enrichment relative to AAV9, Heart (NHP) (fold)

Residue Codes | Value Reported
KTVNGGGSPHSKAQNHQT | 0.024
KAENGSGSPHSKAQNQQT | 0.157
KTFNGGGSPHSKAQYQQT | 0.000
KTINGSGSPHSKAQNTHD | 0.027
KTINGSGSPHSKAQGHHT | 0.000
KTINGSGSPHSKAQAIHT | 0.000
KTEHVSGSPHSKAQNQQT | 0.024
KTINGSGSPHSKAQMPNT | 0.036
KTEQTSGSPHSKAQNQQT | 0.045
KAETGSGSPHSKAQNQQT | 0.047
KTINGSGSPHSKAQVQQI | 1.113
KTCNASGSPHSKAQNQQT | 0.011
KAINGSGSPHSKAHNQET | 0.030
KTINGSGSPHSKAQYRAT | 0.158
KTIIKNGSPHSKAQNQQT | 0.000
KTINVSGSPHSKAQGQQT | 0.191
KTINGGGSPHSKAQNQMT | 0.000
KQGEGSGSPHSKAQNQQT | 0.000
KTEDLSGSPHSKAQNQQT | 0.000
KTINGGGSPHSKSQNRQT | 0.000
KTVNGGGSPHSKSQNQQT | 0.000
KTINGSGSPHSKAQVPPT | 0.012
KTINGSGSPHSKLQKQQT | 0.477
KTINKEGSPHSKAQNQQT | 0.029
KTINGSGSPHSKAQKIST | 0.000
KTINGNGSPHSKSQNQHT | 0.054
KGVLGSGSPHSKAQNQQT | 0.007
KTINGGGSPHSKAQYQHT | 0.000
KNSLGSGSPHSKAQNQQT | 0.028
KTINGSGSPHSKAPSNQT | 4.762
KTINGSGSSHSKAQNQQT | 1.870
KTIRENGSPHSKAQNQQT | 0.000
KTEPMSGSPHSKAQNQQT | 0.000
KTNNGGGSPHSKAQNLQT | 0.000
KGGEGSGSPHSKAQNQQT | 0.034

Entry source: patent US20260250318A1
